B1: TPR 5TU (parent)
chain: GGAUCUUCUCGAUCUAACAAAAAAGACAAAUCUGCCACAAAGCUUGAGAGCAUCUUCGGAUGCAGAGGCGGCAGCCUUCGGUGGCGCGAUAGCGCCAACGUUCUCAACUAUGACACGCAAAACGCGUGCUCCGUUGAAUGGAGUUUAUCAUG

Variants of: B1
protocol: polymerase ribozyme fitness, log enrichment relative to wild type (log ratio); higher = more active; in vitro selection for triplet polymerase activity
This sample holds only a part of the variants without activity.
Binning of polymerase ribozyme fitness (log ratio) into classes: category 1 (below -3), category 2 (-3 to below -1), category 3 (-1 or more)

Before answering, review these 3 worked examples.
Category lookup for the variant U61A A66C G74A U90G A91G G133U A138C category 1

Category lookup for the variant A52U G81A C87A A97U U104G G126C U134G G136C category 1

Category lookup for the variant C18U G83C category 2

Further cases:
Category lookup for the variant G25C U45A G59A U90G G100A C116G category 1

Category lookup for the variant C76A U78C C103G category 1

Category lookup for the variant U104C category 3

Category lookup for the variant A41C C95G category 3

Category lookup for the variant U31G C87U U127A category 1

Category lookup for the variant C35U A40G C51U G81C C87A category 1

Category lookup for the variant G58C C87U category 2

Category lookup for the variant U56A C87U A98U C116G category 3

Category lookup for the variant U56A C125U A142C category 1

Category lookup for the variant U53A C118G U144C category 2

Category lookup for the variant A26C C38U C69A U77G G88U category 1

Category lookup for the variant G59A U78G A91U U102G category 1

Category lookup for the variant A22C A47C C51G A64G C72A C95U A107G A113U U135A category 1
